test system: 786-0; test: NCI tumour cell line growth inhibition, 48 h
Activity calls are given as the source filed them. Rule as the data show it: active = GI50 up to about 1.1 µM and inactive = higher.
Measured GI50, listed per entry.

A selection of reference data follows.
INSERT INTO assay_data (compound, measurement_label, result) VALUES
  ('CC(C)(C)C(=O)c1c(O)c2ccccc2c2ccccc2c1=O', 'GI50', '> 100 µM (inactive)'),
  ('CC(NNC(=O)c1ccncc1)c1ccccc1 (configuration not stated)', 'GI50', '> 100 µM (inactive)'),
  ('Cc1ccc(Nc2nc3c(s2)C(=O)c2ccccc2C3=O)cc1', 'GI50', '1.88 µM (inactive)'),
  ('Cc1cc(Br)cc(C)c1NC(=O)C(=O)C(C(=O)c1ccncc1)C1OC(=O)c2ccccc21 (configuration not stated)', 'GI50', '> 100 µM (inactive)'),
  ('O=c1[nH]c(C2CCCCC2)nc2ccc(Cl)cc12', 'GI50', '> 100 µM (inactive)'),
  ('COc1c(C)cc2c(c1O)C1C3[C@H]4SC[C@@]5(NCCC6=C5NC5C=CC=CC65)C(=O)OCC(c5c6c(c(C)c(OC(C)=O)c54)OCO6)N3[C@@H](O)C(C2)N1C (some centres not stated)', 'GI50', '< 0.01 µM (active)'),
  ('COC(=O)/C=C/c1ccccc1N=[S@](C)(=O)c1ccc(C)cc1', 'GI50', '27.9 µM (inactive)'),
  ('C[C@H]1CC(=O)C[C@@H]2CC[C@@H]3[C@H](CC[C@]4(C)C(OC(=O)c5cccc6c(=O)c7ccccc7[nH]c56)CC[C@@H]34)[C@]21C (some centres not stated)', 'GI50', '48 µM (inactive)');

Reported GI50 for O=S(=O)(O)c1cc(O)c(/N=N/c2ccc3ccccc3c2O)c2ccccc12 [ERIOCHROME BLUE BLACK B] : what is it?
31.4 µM (inactive)

Likewise for O=C(Cc1ccccc1)NN1C(=O)/C(=C\c2ccccc2O)S/C1=N\c1ccccc1 ?
> 100 µM (inactive)
